log10 EC50 for assorted compounds
TARGET: human 5-HT2C receptor (Homo sapiens, UniProt P28335)
Construct: expressed in transfected cells; host or cells: HEK-293
PROTOCOL DESCRIPTION: Functional activity by Ca++-flux (intracellular calcium mobilization), 5-HT2C
Format: cell-based
EXPERIMENTAL PARAMETERS: Ca++-flux, HEK-293 cells; NA = not active; read-out: 5-HT2C human EC50
Hello, just confirming the data are log10 of EC50 with units of µM.

// below: answered compounds
* CN[C@@H]1C[C@H]1c1ccccc1 (racemic) | 0.40
* CNC[C@@H]1C[C@H]1c1ccccc1 (racemic) | -0.14
* CC(C)N[C@@H]1C[C@H]1c1ccccc1 (racemic) | 0.95
* c1ccc(CN[C@@H]2C[C@H]2c2ccccc2)cc1 (racemic) | 1.02

Consider the record given below.
Could you please provide reported log10 EC50 for c1ccc(CNC[C@@H]2C[C@H]2c2ccccc2)cc1 (racemic) ? Thanks!
0.87

---

TARGET: human 5-HT2A receptor (Homo sapiens)
Construct: expressed in transfected cells; host or cells: HEK-293
Sequence (P28223 whole entry): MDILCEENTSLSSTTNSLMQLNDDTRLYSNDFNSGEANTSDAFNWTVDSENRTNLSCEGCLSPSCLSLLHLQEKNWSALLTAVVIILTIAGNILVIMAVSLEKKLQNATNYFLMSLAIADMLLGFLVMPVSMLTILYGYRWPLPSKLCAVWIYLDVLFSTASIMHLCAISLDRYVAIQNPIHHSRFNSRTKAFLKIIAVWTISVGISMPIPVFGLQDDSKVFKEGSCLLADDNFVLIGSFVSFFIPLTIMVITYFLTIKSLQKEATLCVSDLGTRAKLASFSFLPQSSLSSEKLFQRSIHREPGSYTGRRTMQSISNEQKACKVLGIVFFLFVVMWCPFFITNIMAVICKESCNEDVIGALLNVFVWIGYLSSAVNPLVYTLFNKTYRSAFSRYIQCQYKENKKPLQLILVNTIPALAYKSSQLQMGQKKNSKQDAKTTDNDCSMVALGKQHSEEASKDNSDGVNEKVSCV
PROTOCOL DESCRIPTION: Functional activity by Ca++-flux (intracellular calcium mobilization), 5-HT2A
Type: cell-based
EXPERIMENTAL PARAMETERS: Ca++-flux, HEK-293 cells; NA = not active
pEC50 for assorted compounds
The meaning of pEC50 here: minus log10 of the concentration in molar units.

* c1ccc(CNC[C@@H]2C[C@H]2c2ccccc2)cc1 (racemic) | 3.91

Could you please provide reported pEC50 for CN[C@@H]1C[C@H]1c1ccccc1 (racemic) ? Thanks!
3.78

Could you please provide reported pEC50 for CC(C)N[C@@H]1C[C@H]1c1ccccc1 (racemic) ? Thanks!
2.83

Could you please provide reported pEC50 for CNC[C@@H]1C[C@H]1c1ccccc1 (racemic) ? Thanks!
5.43

Could you please provide reported pEC50 for c1ccc(CN[C@@H]2C[C@H]2c2ccccc2)cc1 (racemic) ? Thanks!
2.01

---

TARGET: human 5-HT2C receptor (Homo sapiens, UniProt P28335)
Construct: expressed in transfected cells; host or cells: HEK-293
Sequence (P28335 33-458): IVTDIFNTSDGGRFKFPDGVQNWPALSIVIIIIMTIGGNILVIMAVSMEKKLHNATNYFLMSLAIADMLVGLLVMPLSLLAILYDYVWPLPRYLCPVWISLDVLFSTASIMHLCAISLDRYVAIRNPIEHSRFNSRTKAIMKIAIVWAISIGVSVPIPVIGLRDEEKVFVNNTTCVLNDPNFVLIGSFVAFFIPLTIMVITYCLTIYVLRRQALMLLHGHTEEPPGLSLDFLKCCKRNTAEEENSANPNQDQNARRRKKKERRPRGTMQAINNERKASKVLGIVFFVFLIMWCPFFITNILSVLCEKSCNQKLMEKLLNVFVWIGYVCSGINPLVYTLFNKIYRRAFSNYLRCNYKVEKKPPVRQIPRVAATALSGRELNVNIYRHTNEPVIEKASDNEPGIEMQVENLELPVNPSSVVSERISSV
PROTOCOL DESCRIPTION: Functional activity by Ca++-flux (intracellular calcium mobilization), 5-HT2C
Type: cell-based
EXPERIMENTAL PARAMETERS: ratio of EC50 5-HT2A / 5-HT2C
Class met: 2A/2C ratio at least 70. Class not met: 2A/2C ratio below 70.

Would you say CNC[C@@H]1C[C@H]1c1ccccc1 (racemic) shows 2A/2C ratio at minimum 70?
not met
